B1: library; a variant is named by its letters at N, in order (parent)
chain: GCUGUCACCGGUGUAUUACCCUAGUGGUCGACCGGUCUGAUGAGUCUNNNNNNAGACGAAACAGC

- Variants of: B1
- assay remarks: normalized RNA/DNA level with ligand (relative to sTRSVctl = 100) (log10 (% of sTRSVctl)); ligand: hypoxanthine (xanthine aptamer); higher = less ribozyme self-cleavage, higher mRNA level
- applied conditions: ligand concentration (+) RNA-Seq: 5 mM, HEK293T, reporter: mCherry (pCS4076), ligand present: yes
assay readout: normalized RNA/DNA level with ligand (log10)
One number for each entry.

Take a look at these entries with their results.
Exercise: What value of normalized RNA/DNA level with ligand (log10) has been recorded for this entry: GCUGUCACCGGUGUAUUACCCUAGUGGUCGACCGGUCUGAUGAGUCUUCAUUGAGACGAAACAGC
Solution: 1.91

Exercise: What does the data say about its normalized RNA/DNA level with ligand (log10)? Entry: GCUGUCACCGGUGUAUUACCCUAGUGGUCGACCGGUCUGAUGAGUCUCCGAUUAGACGAAACAGC
Solution: 1.96

Batch lookup, normalized RNA/DNA level with ligand (log10) per entry.
1. GCUGUCACCGGUGUAUUACCCUAGUGGUCGACCGGUCUGAUGAGUCUCCGGUUAGACGAAACAGC
2. GCUGUCACCGGUGUAUUACCCUAGUGGUCGACCGGUCUGAUGAGUCUCAACAGAGACGAAACAGC
3. GCUGUCACCGGUGUAUUACCCUAGUGGUCGACCGGUCUGAUGAGUCUGUGUAUAGACGAAACAGC
4. GCUGUCACCGGUGUAUUACCCUAGUGGUCGACCGGUCUGAUGAGUCUUCGGACAGACGAAACAGC
5. GCUGUCACCGGUGUAUUACCCUAGUGGUCGACCGGUCUGAUGAGUCUACUUCGAGACGAAACAGC
6. GCUGUCACCGGUGUAUUACCCUAGUGGUCGACCGGUCUGAUGAGUCUCAUAAGAGACGAAACAGC
7. GCUGUCACCGGUGUAUUACCCUAGUGGUCGACCGGUCUGAUGAGUCUCUACCGAGACGAAACAGC
8. GCUGUCACCGGUGUAUUACCCUAGUGGUCGACCGGUCUGAUGAGUCUUCUCAAAGACGAAACAGC

Solution:
1: 2.03; 2: 1.92; 3: 1.91; 4: 1.98; 5: 1.9; 6: 1.92; 7: 1.95; 8: 1.92

Exercise: Request the reported normalized RNA/DNA level with ligand (log10) associated with GCUGUCACCGGUGUAUUACCCUAGUGGUCGACCGGUCUGAUGAGUCUGGUCACAGACGAAACAGC
Solution: 1.91
